Just for reference, the supplement of paper PMC7877785 is where these values come from.

Assay: self-splicing fitness, log relative to wild type (ln ratio); higher = more splicing; Tetrahymena group I intron in knt gene, E. coli kanamycin selection, DiMSum; sequences stand for … in CUCUCU…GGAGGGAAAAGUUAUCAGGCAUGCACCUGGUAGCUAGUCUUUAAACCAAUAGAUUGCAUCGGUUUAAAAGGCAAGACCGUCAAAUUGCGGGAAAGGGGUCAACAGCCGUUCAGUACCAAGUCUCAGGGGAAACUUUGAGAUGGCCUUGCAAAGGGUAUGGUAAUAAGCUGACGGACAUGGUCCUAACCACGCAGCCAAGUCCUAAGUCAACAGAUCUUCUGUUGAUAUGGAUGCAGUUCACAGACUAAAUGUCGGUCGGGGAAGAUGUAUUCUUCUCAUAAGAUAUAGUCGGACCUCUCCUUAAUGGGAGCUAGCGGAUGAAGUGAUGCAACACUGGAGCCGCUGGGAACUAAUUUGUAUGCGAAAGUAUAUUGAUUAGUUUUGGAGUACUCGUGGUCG;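 further: selection with 25 µg/mL kanamycin versus none on LB agar overnight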
Conditions: 30 °C
Think of -3 as a floor: if self-splicing fitness (ln) stands on it or above, it is 1 (yes); beneath it, 0 (no).

Reference set (8 entries):
> print(dat)
          sequence.data  label.value
1  ACUUAGCAAUAUUACGAGCA      1 (yes)
2  GCCAAGCAAUAUUACGUGAU      1 (yes)
3  CGUUAGCAAUAUUACGGGUA       0 (no)
4  GCCCAGCAAUAUUACGGGGC      1 (yes)
5  GUCUAGCAAUAUUACGGCUG      1 (yes)
6  UAAAAGCAAUAUUACGGUAU       0 (no)
7  AGCCAGCAAUAUUACGAAAC       0 (no)
8  GCAAAGCAAUAUUACGCCUA       0 (no)

API: above_or_equal(metric=self-splicing fitness (ln), cutoff=-3) for item CUUUAGCAAUAUUACGUAUC 0 (no)

Repeat for the following sequence: AAGUAGCAAUAUUACGCAUU 1 (yes)

Next: UGCUAGCAAUAUUACGGAAA 1 (yes)

What do you have for GACCAGCAAUAUUACGGAGU ? 1 (yes)

Then what about the sequence CGACAGCAAUAUUACGAUGC ? 0 (no)

====

Test: self-splicing fitness, log relative to wild type (ln ratio); higher = more splicing; Tetrahymena group I intron in knt gene, E. coli kanamycin selection, DiMSum; sequences stand for … in CUCUCU…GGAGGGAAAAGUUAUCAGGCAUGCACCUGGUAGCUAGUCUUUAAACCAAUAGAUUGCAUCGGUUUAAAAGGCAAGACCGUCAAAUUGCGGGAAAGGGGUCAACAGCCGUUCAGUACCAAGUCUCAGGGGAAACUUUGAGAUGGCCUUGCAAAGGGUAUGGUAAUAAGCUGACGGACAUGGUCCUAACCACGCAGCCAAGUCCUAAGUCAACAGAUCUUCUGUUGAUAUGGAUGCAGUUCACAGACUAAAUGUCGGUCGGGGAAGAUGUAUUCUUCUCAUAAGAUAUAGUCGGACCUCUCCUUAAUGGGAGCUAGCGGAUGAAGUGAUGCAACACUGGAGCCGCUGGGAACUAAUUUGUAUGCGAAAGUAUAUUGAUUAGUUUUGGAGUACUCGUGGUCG
Details: 37 °C
READOUT KIND: self-splicing fitness (ln)
One number for each entry.

Observe how each entry below is paired with its result.
> print(dat)
          sequence.data                readout.kind  measured.value
1  CCAUAGCAAUAUUACGGUAU  self-splicing fitness (ln)           -1.34
2  CGUUAGCAAUAUUACGGAUU  self-splicing fitness (ln)           -2.21
3  GUGCAGCAAUAUUACGGGUA  self-splicing fitness (ln)           -2.12
4  AGAAAGCAAUAUUACGUAUA  self-splicing fitness (ln)           -1.66
5  AGCCAGCAAUAUUACGGAGU  self-splicing fitness (ln)           -1.66

Consider the following items and state reported self-splicing fitness (ln) for each.
1. UUGGAGCAAUAUUACGGUGG
2. CUAUAGCAAUAUUACGCGUA
3. AUAUAGCAAUAUUACGUAGG

1: -3.08; 2: -2.86; 3: -0.744
